Ends that are not written are not given here.
The listing below reports Average cell viability, HUVEC for substances tested on human umbilical vein endothelial cells (HUVEC). Note: test concentration or dose not given here.

**Q:** Value lookup for Average cell viability, HUVEC; key = LQPDAGK [TaPep6]
**A:** 102.10

**Q:** Please give the result for YAGNAP [TaPep10] too.
**A:** 102.47

**Q:** Please give the result for LWGPVT [TaPep72] too.
**A:** 99.47

**Q:** Please give the result for FTEELE [TaPep32] too.
**A:** 98.11

**Q:** Please give the result for EQGEQN [TaPep15] too.
**A:** 100.56

**Q:** Please give the result for SLEYLP [TaPep35] too.
**A:** 100.35

**Q:** Please give the result for EEVPITD [TaPep46] too.
**A:** 101.12

**Q:** Please give the result for VPDELN [TaPep23] too.
**A:** 97.76

**Q:** Please give the result for EQPLQA [TaPep21] too.
**A:** 102.16

---

Consider the following substances; for each one, report its Cell viability, HPNE, Data3.
System: human pancreatic ductal epithelial cells (HPNE); note: test concentration or dose not given here
Ends that are not written are not given here.
# respond with the number and nothing more

**Q:** Value lookup for Cell viability, HPNE, Data3; key = LGDDLVK [TaPep19]
**A:** 82.76

**Q:** Please give the result for STGTIR [TaPep51] too.
**A:** 104.23

**Q:** Please give the result for PPLENT [TaPep39] too.
**A:** 113.21

**Q:** Please give the result for AKDEKEL [TaPep1] too.
**A:** 99.73

**Q:** Please give the result for YQAENKH [TaPep14] too.
**A:** 99.63

**Q:** Please give the result for SVLEFS [TaPep52] too.
**A:** 102.93

**Q:** Please give the result for YAGNAP [TaPep10] too.
**A:** 94.97

**Q:** Please give the result for TAEQVA [TaPep33] too.
**A:** 113.31

**Q:** Please give the result for EQGEQN [TaPep15] too.
**A:** 107.22

**Q:** Please give the result for LQDVVE [TaPep24] too.
**A:** 93.78

**Q:** Please give the result for KNDESVD [TaPep48] too.
**A:** 110.82

**Q:** Please give the result for IAVPHEP [TaPep47] too.
**A:** 105.12

**Q:** Please give the result for VARLEA [TaPep9] too.
**A:** 102.13

**Q:** Please give the result for SNDPVA [TaPep71] too.
**A:** 114.31

**Q:** Please give the result for DQKVLA [TaPep3] too.
**A:** 83.96

**Q:** Please give the result for LWGPVT [TaPep72] too.
**A:** 90.65

**Q:** Please give the result for TQEVVN [TaPep25] too.
**A:** 104.03

**Q:** Please give the result for APEELDA [TaPep36] too.
**A:** 115.01

**Q:** Please give the result for SLEYLP [TaPep35] too.
**A:** 106.32

**Q:** Please give the result for AQDDLP [TaPep20] too.
**A:** 99.83

**Q:** Please give the result for YDGTPLN [TaPep11] too.
**A:** 90.05

**Q:** Please give the result for TDPELV [TaPep60] too.
**A:** 107.02

**Q:** Please give the result for NGDDEEG [TaPep7] too.
**A:** 112.51

**Q:** Please give the result for LQPSLEH [TaPep59] too.
**A:** 88.05

**Q:** Please give the result for HGGDDLG [TaPep28] too.
**A:** 97.63

**Q:** Please give the result for FEGDQDA [TaPep18] too.
**A:** 102.33

**Q:** Please give the result for FPEQQD [TaPep16] too.
**A:** 100.73

**Q:** Please give the result for EPKVLV [TaPep54] too.
**A:** 89.35

**Q:** Please give the result for EFPEQN [TaPep17] too.
**A:** 98.04

**Q:** Please give the result for KADGNR [TaPep4] too.
**A:** 100.36

**Q:** Please give the result for VPDELN [TaPep23] too.
**A:** 83.56

**Q:** Please give the result for SLEYEFK [TaPep38] too.
**A:** 109.22

**Q:** Please give the result for TIDDELR [TaPep26] too.
**A:** 104.03

**Q:** Please give the result for KGYEAV [TaPep5] too.
**A:** 113.13

**Q:** Please give the result for EQPLQA [TaPep21] too.
**A:** 116.51
